Target or system UniProt P63000: recorded pIC50 listed per item.
pIC50: −log10 of the molar value.
measurement-kind: pIC50

FC(F)(F)c1ccc2c(SCCCCCCNc3ccc(N4CCOCC4)cc3)ccnc2c1 : 6.15
FC(F)(F)c1ccc2c(SCCCCCCn3cncc3CN3CCOCC3)ccnc2c1 : 5.63
COc1ccc(NCc2cn(CCCCCCSc3ccnc4cc(C(F)(F)F)ccc34)cn2)cc1 : 6.60
FC(F)(F)c1ccc2c(SCCCCCCn3cnc(CNc4ccccc4)c3)ccnc2c1 : 5.69

====

Target or system Rac1 protein (Homo sapiens): recorded IC50 listed per item.
measurement-kind: IC50 (µM)

COc1ccc(N2CCN(Cc3cn(CCCCCCSc4ccnc5cc(C(F)(F)F)ccc45)nn3)CC2)cc1 : 1.41
FC(F)(F)c1ccc2c(SCCCCCCn3cc(CN4CCOCC4)nn3)ccnc2c1 (racemic) : 3.42
O=C1CNCCN1c1ccc(NCCCCCCSc2ccnc3cc(C(F)(F)F)ccc23)cc1 : 3.07
FC(F)(F)c1ccc2c(SCCCCCOc3ccc(CN4CCOCC4)nc3)ccnc2c1 : 1.24
FC(F)(F)c1ccc2c(SCCCCCNc3ccc(N4CCNCC4)cc3)ccnc2c1 : 9.67
OC(c1ccccc1)c1cn(CCCCCCSc2ccnc3cc(C(F)(F)F)ccc23)cn1 (centres unmarked) : 100
Fc1ccc2c(SCCCCCCn3cc(CN4CCOCC4)nn3)ccnc2c1 : 4.32
Fc1ccc2c(SCCCCCCn3cnc(CNc4ccccc4)c3)ccnc2c1 : 2.35

====

# target-system: His-Rac1 / GST-PBD (PAK Binding Domain) (Homo sapiens)
# assay-protocol: Rac Activation AlphaScreen Assay (Rac1 AS)
# protocol-conditions: 500 nM GTPγS, 37° C., 1 hour; 'positive' = signal generated was higher than the positive control
pIC50: −log10 of the molar value.
Outcome: Condition met for pIC50 of at least 5; Condition not met for anything lower.

COc1ccc(NCc2cn(CCCCCCSc3ccnc4cc(C(F)(F)F)ccc34)cn2)cc1 : Condition met
FC(F)(F)c1ccc2c(SCCCCCNc3ccc(N4CCNCC4)cc3)ccnc2c1 : Condition met
FC(F)(F)c1ccc2c(SCCCCCCn3cnc(CNc4ccccc4)c3)ccnc2c1 : Condition met
NC1CCN(c2ccc(NCCCCCCSc3ccnc4cc(C(F)(F)F)ccc34)cc2)CC1 : Condition met
FC(F)(F)c1ccc2c(SCCCCCCCn3cc(CN4CCOCC4)nn3)ccnc2c1 : Condition not met
FC(F)(F)c1ccc2c(SCCCCCCNc3ccc(N4CCNCC4)cc3)ccnc2c1 : Condition met
FC(F)(F)c1ccc2c(SCCCCCCNc3cccc(N4CCNCC4)c3)ccnc2c1 : Condition met
FC(F)(F)c1ccc2c(SCCCCCCn3cnc(CN4CCOCC4)c3)ccnc2c1 : Condition not met
FC(F)(F)c1ccc2c(SCCCCCCNc3ccc(N4CCOCC4)cc3)ccnc2c1 : Condition met
FC(F)(F)c1ccc2c(SCc3cccc(Cn4cc(CN5CCOCC5)nn4)c3)ccnc2c1 : Condition not met
Cc1ccc(NCc2cn(CCCCCCSc3ccnc4cc(C(F)(F)F)ccc34)cn2)cc1 : Condition met
O=C1CNCCN1c1ccc(NCCCCCCSc2ccnc3cc(C(F)(F)F)ccc23)cc1 : Condition met
FC(F)(F)c1ccc2c(SCCCCCCn3cncc3CN3CCOCC3)ccnc2c1 : Condition not met
CN(Cc1cn(CCCCCCSc2ccnc3cc(C(F)(F)F)ccc23)cn1)c1ccccc1 : Condition met
FC(F)(F)c1ccc2c(SCCCCCCn3ccc(CN4CCOCC4)n3)ccnc2c1 : Condition not met

====

# target-system: His-Rac1 / GST-PBD (PAK Binding Domain) (Homo sapiens)
# assay-protocol: Rac Activation AlphaScreen Assay (Rac1 AS)
# Format: biochemical
# protocol-conditions: 500 nM GTPγS, 37° C., 1 hour; 'positive' = signal generated was higher than the positive control
pIC50: −log10 of the molar value.
measurement-kind: pIC50

Fc1ccc2c(SCCCCCCn3cnc(CNc4ccccc4)c3)ccnc2c1 : 5.14
COc1ccc(N2CCN(Cc3cn(CCCCCCSc4ccnc5cc(C(F)(F)F)ccc45)nn3)CC2)cc1 : 5.09
O=C1COCCN1c1cccc(NCCCCCCSc2ccnc3cc(C(F)(F)F)ccc23)c1 : 5.09
OC(c1ccccc1)c1cn(CCCCCCSc2ccnc3cc(C(F)(F)F)ccc23)cn1 (stereo not shown) : 5.02
